System: MDA-MB-468
Experiment: phospho-S6 immunofluorescence (DAPI-normalised), per-plate z-score; higher = higher phospho-S6 signal (less pathway suppression)
Details: co-treatment: vehicle; 24 h
Structures can show the parent of a compound that is named as a salt.
PROPERTY_NAME: phospho-S6 immunofluorescence (z-score)
Answers are plain numbers.

Use the examples below as a reference point.
## Task Could you share which phospho-S6 immunofluorescence (z-score) value was measured for CC(C)(C(=O)O)c1ccc(C(O)CCCN2CCC(C(O)(c3ccccc3)c3ccccc3)CC2)cc1 (stereo not drawn) [Fexofenadine (hydrochloride)] (compound 10 µM) ?
## Result -0.42

## Task Which phospho-S6 immunofluorescence (z-score) reading was recorded for the compound O=C(NCC(=O)N1CC[C@H](N[C@H]2CC[C@@](O)(c3ccc(-c4ncccn4)cn3)CC2)C1)c1cccc(C(F)(F)F)c1 (compound 10 µM) ?
## Result 0.76

New cases:
## Task Would you mind telling me what phospho-S6 immunofluorescence (z-score) value was observed for CC(C)c1noc(N2CCC(COc3ccc(-c4ccc(S(C)(=O)=O)cc4)nc3)CC2)n1 (compound 10 µM) ?
## Result -6.22

---

System: MDA-MB-468
Assay: phospho-S6 immunofluorescence (DAPI-normalised), per-plate z-score; higher = higher phospho-S6 signal (less pathway suppression)
Details: co-treatment: GDC0941 450 nM; 24 h
Where a name gives a salt, the structure may show the parent alone.
Decision: phospho-S6 immunofluorescence (z-score) >= 0.2 yields True, all other cases yield False.

These recorded examples may help you get a feel for the data.
## Task Check the entry CC1OC2(CS1)CN1CCC2CC1 (stereo unspecified) [Cevimeline (hydrochloride hemihydrate)] (compound 10 µM) : does phospho-S6 immunofluorescence (z-score) equal or exceed 0.2?
## Result True

## Task Decide: is the reported value of phospho-S6 immunofluorescence (z-score) for COC(c1ccccc1)(c1ccccc1)[C@H](Oc1nc(C)cc(C)n1)C(=O)O [Ambrisentan] (compound 10 µM) equal to or greater than 0.2?
## Result True

## Task For this compound, is measured phospho-S6 immunofluorescence (z-score) 0.2 or higher? CCc1cc2c(cc1CC)CC(NC[C@H](O)c1ccc(O)c3[nH]c(=O)ccc13)C2 [Indacaterol (maleate)] (compound 10 µM)
## Result False

## Task I'd appreciate it if you could say whether COc1ccc(CC(C)NCC(O)c2ccc(O)c(NC=O)c2)cc1 (stereo unspecified) [Formoterol (Fumarate)] (compound 10 µM) has phospho-S6 immunofluorescence (z-score) at least equal to 0.2.
## Result True

## Task Is it the case that CC[C@H](C)[C@H](NC(=O)[C@H](Cc1ccc(O)cc1)NC(=O)[C@@H](NC(=O)[C@H](CCCNC(=N)N)NC(=O)[C@@H](N)CC(=O)O)C(C)C)C(=O)N[C@@H](Cc1c[nH]cn1)C(=O)N1CCC[C@H]1C(=O)O [Angiotensin (1-7)] (compound 10 µM) has phospho-S6 immunofluorescence (z-score) reaching or exceeding 0.2?
## Result False

## Task Check if phospho-S6 immunofluorescence (z-score) >= 0.2 (inclusive). Item: CCC(=O)NCC[C@@H]1CCc2ccc3c(c21)CCO3 [Ramelteon] (compound 10 µM)
## Result False

***
## Task Please tell me: is the compound Cc1noc(-c2ccc(-c3ccc(CC(=O)O)cc3)cc2)c1NC(=O)OC(C)c1ccccc1Cl (stereo unspecified) (compound 10 µM) at or over 0.2 in terms of phospho-S6 immunofluorescence (z-score)?
## Result True

## Task # check: phospho-S6 immunofluorescence (z-score) of COc1ccccc1N1CCN(CCCCN2C(=O)c3ccccc3C2=O)CC1 [NAN-190 (hydrobromide)] (compound 10 µM) is greater than or equal to 0.2
## Result True

## Task Assess whether reported phospho-S6 immunofluorescence (z-score) for O=C(NCC(=O)N1CC[C@H](N[C@H]2CC[C@@](O)(c3ccc(-c4ncccn4)cn3)CC2)C1)c1cccc(C(F)(F)F)c1 (compound 10 µM) sits at 0.2 or higher.
## Result False

## Task State whether the measured phospho-S6 immunofluorescence (z-score) reaches 0.2, counting equality as reaching it, for CC1=C(C)C(=O)C(C(CCCCCC(=O)O)c2ccccc2)=C(C)C1=O (stereo unspecified) [Seratrodast] (compound 10 µM)
## Result True

## Task For this compound, is measured phospho-S6 immunofluorescence (z-score) 0.2 or higher? COc1cc2nc(N(C)CCCNC(=O)C3CCCO3)nc(N)c2cc1OC (stereo unspecified) [Alfuzosin] (compound 10 µM)
## Result True

## Task I'd appreciate it if you could say whether CC(=O)OCC(=O)[C@@]12OC(C)(C)O[C@@H]1C[C@H]1[C@@H]3C[C@H](F)C4=CC(=O)C=C[C@]4(C)[C@@]3(F)[C@@H](O)C[C@@]12C [Fluocinonide] (compound 10 µM) has phospho-S6 immunofluorescence (z-score) at least equal to 0.2.
## Result False

## Task Given the entry CCCC1O[C@@H]2C[C@H]3[C@@H]4CCC5=CC(=O)C=C[C@]5(C)[C@H]4[C@@H](O)C[C@]3(C)[C@]2(C(=O)CO)O1 (stereo partly specified) [Budesonide] (compound 10 µM) , answer whether its phospho-S6 immunofluorescence (z-score) meets or surpasses 0.2.
## Result False

## Task Given O=C1CCc2ccc(OCCCCN3CCN(c4cccc(Cl)c4Cl)CC3)cc2N1 [Aripiprazole] (compound 10 µM) , state whether its phospho-S6 immunofluorescence (z-score) is at least 0.2.
## Result False

## Task State whether the measured phospho-S6 immunofluorescence (z-score) reaches 0.2, counting equality as reaching it, for COc1cccc(CCc2ccccc2OCC(CN(C)C)OC(=O)CCC(=O)O)c1 (stereo unspecified) [Sarpogrelate (hydrochloride)] (compound 10 µM)
## Result True

## Task State whether the measured phospho-S6 immunofluorescence (z-score) reaches 0.2, counting equality as reaching it, for CC1(C)O[C@@H]2C[C@H]3[C@@H]4CCC5=CC(=O)C=C[C@]5(C)[C@@]4(F)[C@@H](O)C[C@]3(C)[C@]2(C(=O)CO)O1 [Triamcinolone (acetonide)] (compound 10 µM)
## Result False

## Task Textbook exercise: given the entry CC(C)=CCC/C(C)=C/CC/C(C)=C/CSc1ccccc1C(=O)O [Salirasib] (compound 10 µM) , state whether its phospho-S6 immunofluorescence (z-score) is greater than or equal to 0.2.
## Result True

## Task Has CC(=O)OC(C)C[N+](C)(C)C (stereo unspecified) [Methacholine (chloride)] (compound 10 µM) a recorded phospho-S6 immunofluorescence (z-score) greater than or equal to 0.2?
## Result True

## Task Reported phospho-S6 immunofluorescence (z-score) reaches at least 0.2 for CC(=O)OCC(=O)[C@@]1(O)CC[C@H]2[C@@H]3CCC4=CC(=O)CC[C@]4(C)[C@H]3C(=O)C[C@@]21C [Cortisone (acetate)] (compound 10 µM) ?
## Result True

## Task Does phospho-S6 immunofluorescence (z-score) meet or surpass 0.2 for CN(C)CCOC(C)(c1ccccc1)c1ccccn1 (stereo unspecified) [Doxylamine (succinate)] (compound 10 µM) ?
## Result True

---

Tested on: MDA-MB-468
Assay: phospho-S6 immunofluorescence (DAPI-normalised), per-plate z-score; higher = higher phospho-S6 signal (less pathway suppression)
Details: co-treatment: lapatinib 1 uM; 24 h
Counter-ions that a name gives are not always drawn.
PROPERTY_NAME: phospho-S6 immunofluorescence (z-score)
One number for each entry.

Below, 2 molecules whose answers are already recorded.
## Task // map Cn1cc(C(=O)[C@@H]2CCc3[nH]cnc3C2)c2ccccc21 [Ramosetron (Hydrochloride)] (compound 10 µM) to recorded phospho-S6 immunofluorescence (z-score) (system: MDA-MB-468)
## Result 0

## Task # query: phospho-S6 immunofluorescence (z-score) | item CCN(CC)CCNC(=O)c1cc(Cl)c(N)cc1OC [Metoclopramide (hydrochloride hydrate)] (compound 10 µM) | system: MDA-MB-468
## Result 0.77

Go through the items and report each one's phospho-S6 immunofluorescence (z-score).
1. COc1cc(C(=O)N(CCCc2ccccc2)Cc2ccc(CC(=O)O)cc2)cc(OC)c1C (compound 10 µM)
2. CCOC(=O)N1CCC(=C2c3ccc(Cl)cc3CCc3cccnc32)CC1 [Loratadine] (compound 10 µM)
3. CCCCc1ccc(NS(=O)(=O)c2ccc(F)cc2)cc1 (compound 10 µM)
4. OC(CCN1CCCCC1)(c1ccccc1)C1CCCCC1 (stereo not given) [Trihexyphenidyl (hydrochloride)] (compound 10 µM)
5. Nc1ncnc2c1ncn2C1CCCO1 (stereo not given) (compound 10 µM)
6. OCC1OC(n2cnc3c(NC4CCCCC4)ncnc32)C(O)C1O (stereo not given) [N6-Cyclohexyladenosine] (compound 10 µM)

## Result
0.49
-0.82
-8.48
-0.52
-0.67
1.37

---

System: MDA-MB-468
Assay: phospho-S6 immunofluorescence (DAPI-normalised), per-plate z-score; higher = higher phospho-S6 signal (less pathway suppression)
Details: co-treatment: lapatinib 1 uM; 24 h
Where a name gives a salt, the structure may show the parent alone.
Label 1 when phospho-S6 immunofluorescence (z-score) is at or above -0.07; anything below gets 0.

Sample answers from the record:
## Task Determine whether measured phospho-S6 immunofluorescence (z-score) meets or exceeds -0.07 for COc1ccc(CNC(=O)c2sc3nc(C)cc(C)c3c2N)cc1 (compound 10 µM)
## Result 1

## Task Please tell me: is the compound COC(=O)[C@@H]1[C@H]2C[C@H]3c4[nH]c5ccccc5c4CCN3C[C@@H]2CC[C@@H]1O [Yohimbine (Hydrochloride)] (compound 10 µM) at or over -0.07 in terms of phospho-S6 immunofluorescence (z-score)?
## Result 1

## Task Textbook exercise: given the entry CC(CN1c2ccccc2Sc2ccccc21)N(C)C (configuration not stated) [Promethazine (hydrochloride)] (compound 10 µM) , state whether its phospho-S6 immunofluorescence (z-score) is greater than or equal to -0.07.
## Result 0

Continuing:
## Task hey, is phospho-S6 immunofluorescence (z-score) for this one >= -0.07? C[N+]1(C)[C@@H]2CC[C@H]1C[C@@H](OC(=O)C(O)c1ccccc1)C2 (some centres not stated) [Homatropine (methylbromide)] (compound 10 µM)
## Result 1

## Task For this compound, is measured phospho-S6 immunofluorescence (z-score) -0.07 or higher? N[C@@H](Cc1ccc(O)c(O)c1)C(=O)O (compound 10 µM)
## Result 0

## Task Record O=C1Cc2cc(CCN3CCN(c4nsc5ccccc45)CC3)c(Cl)cc2N1 [Ziprasidone (hydrochloride monohydrate)] (compound 10 µM) ; criterion: phospho-S6 immunofluorescence (z-score) no lower than -0.07. Met?
## Result 0
